Cited source for all entries: paper PMC7261172

Form field: Kd (one value per entry).
# study target: E. coli β-clamp labelled with RED-maleimide dye (MST) (E. coli, UniProt P0A988 1-366, RED-maleimide fluorescent dye (RED-Maleimide Labelling Kit, NanoTemper); site not stated)
# assay text: MST
Unit µM implied. Number only.

Which Kd is listed for Ac-MDRWLVKWKKKRKIRRRRRRRRRRR-NH2 (also: TFA salt) [Cell penetrating APIM-peptide RWLVK (Ac-MD-RWLVK-WKKKRKI-RRRRRRRRRRR)] ?
35

Which Kd is listed for Ac-MDRFSLKWKKKRKIRRRRRRRRRRR-NH2 (also: TFA salt) [Cell penetrating APIM-peptide RFSLK (Ac-MD-RFSLK-WKKKRKI-RRRRRRRRRRR)] ?
19
